- Tested system: Ba/F3-FGFR3-transfected cells (Homo sapiens)
- Construct: BAF3-FGFR3 (MIN IL3) pIC50; other: minus IL3
- Sequence (P22607 whole entry, change not shown): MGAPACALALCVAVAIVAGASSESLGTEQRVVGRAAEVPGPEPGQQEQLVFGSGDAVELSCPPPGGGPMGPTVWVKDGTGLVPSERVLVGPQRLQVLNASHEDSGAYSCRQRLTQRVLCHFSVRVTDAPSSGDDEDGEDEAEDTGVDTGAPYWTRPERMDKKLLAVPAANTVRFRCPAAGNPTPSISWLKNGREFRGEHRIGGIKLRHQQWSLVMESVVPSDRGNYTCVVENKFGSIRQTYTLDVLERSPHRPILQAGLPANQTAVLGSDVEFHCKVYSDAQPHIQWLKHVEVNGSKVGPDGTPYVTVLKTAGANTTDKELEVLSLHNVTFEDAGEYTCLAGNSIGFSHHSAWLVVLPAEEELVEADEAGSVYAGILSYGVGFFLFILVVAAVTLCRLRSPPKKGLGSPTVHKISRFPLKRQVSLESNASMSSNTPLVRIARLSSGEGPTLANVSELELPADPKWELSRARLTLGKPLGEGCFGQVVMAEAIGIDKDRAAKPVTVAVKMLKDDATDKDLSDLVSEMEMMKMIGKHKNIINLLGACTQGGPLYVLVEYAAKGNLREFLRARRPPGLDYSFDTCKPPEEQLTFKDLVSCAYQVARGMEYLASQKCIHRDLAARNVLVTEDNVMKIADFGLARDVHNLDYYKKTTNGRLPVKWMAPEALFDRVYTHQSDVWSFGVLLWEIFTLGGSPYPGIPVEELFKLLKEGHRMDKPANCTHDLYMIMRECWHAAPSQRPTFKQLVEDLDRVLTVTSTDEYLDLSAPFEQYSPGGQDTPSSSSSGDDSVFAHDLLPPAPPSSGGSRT
- Assay: Ba/F3-FGFR3 (minus IL3) cellular proliferation assay, Alamar Blue
- Format: cell-based
Reported metric: BAF3-FGFR3 (MIN IL3) pIC50

COc1cc(OC)c(F)c(N(CCS(C)(=O)=O)c2ccc3ncc(-c4cnn(C)c4)nc3n2)c1 [Compound 226]: ~7.54
COc1cc(OC)cc(N(Cc2ncc[nH]2)c2ccc3ncc(-c4ccccc4)nc3n2)c1 [Compound 152]: 8.08

Just so you know, measured BAF3-FGFR3 (MIN IL3) pIC50 for COc1cc(/N=c2\ccc3ncc(-c4cnn(C)c4)nc3n2CC2CCC(=O)N2CCO)c(F)c(OC)c1 (stereo not shown) [Compound 247] came out at ~7.7

Just so you know, measured BAF3-FGFR3 (MIN IL3) pIC50 for COc1ccc(Cl)c(/N=c2\ccc3ncc(-c4cnn(C)c4)nc3n2CC2CCC(=O)N2)c1Cl (single isomer, unassigned) [Compound 89] came out at 5.14

Just so you know, measured BAF3-FGFR3 (MIN IL3) pIC50 for COCC(O)CN(c1ccc2ncc(-c3cnn(C)c3)nc2n1)c1cc(OC)cc(OC)c1F (single isomer, unassigned) [Compound 59] came out at 7.71

Just so you know, measured BAF3-FGFR3 (MIN IL3) pIC50 for COc1cc(OC)c(F)c(N(CC(C)(C)O)c2ccc3ncc(-c4cnn(C)c4)nc3n2)c1 [Compound 245] came out at 7.07

Just so you know, measured BAF3-FGFR3 (MIN IL3) pIC50 for COc1cc(OC)c(F)c(N(CCN2CCCC2=O)c2ccc3ncc(-c4cnn(C)c4)nc3n2)c1 [Compound 157] came out at ~6.66
